# system_name: biotinylated Gβ1γ2 mutant Lys57Ala (rat) (UniProt P54311)
# Sequence (P54311 whole entry K57A, chain 1 of 2): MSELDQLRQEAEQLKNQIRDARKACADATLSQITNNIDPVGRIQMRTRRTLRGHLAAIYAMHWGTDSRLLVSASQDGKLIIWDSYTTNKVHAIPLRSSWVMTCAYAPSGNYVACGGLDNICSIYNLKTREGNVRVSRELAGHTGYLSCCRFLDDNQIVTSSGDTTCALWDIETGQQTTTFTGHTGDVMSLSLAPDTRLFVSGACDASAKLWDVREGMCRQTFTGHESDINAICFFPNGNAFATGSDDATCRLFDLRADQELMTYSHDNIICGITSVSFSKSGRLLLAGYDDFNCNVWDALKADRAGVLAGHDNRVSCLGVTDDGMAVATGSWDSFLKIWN
# Sequence (P63212 2-68, chain 2 of 2, further chain): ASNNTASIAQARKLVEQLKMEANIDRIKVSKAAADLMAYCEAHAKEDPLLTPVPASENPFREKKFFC
# protocol_summary: phage ELISA, % of wild-type b-βγ
readout_type: % of Wild-Type Signal (%)
Field: numeric (%). Do not append units.

Query block: If you can, please state the reported % of Wild-Type Signal value of LCSKAYLLLGQTC (Group I) [phage 2F (LCSKAYLLLGQTC)] .
Result block: -4.5

Query block: So what's the measured % of Wild-Type Signal for this one? SCEKRLGVRSCT (Group III) [phage C5 (SCEKRLGVRSCT)]
Result block: 5.6

Query block: Given the entry WCPPKLEQWYDGCA (Group IV) [phage C2 (WCPPKLEQWYDGCA)] , report its measured % of Wild-Type Signal.
Result block: -1.2

Query block: Can you look up the measured % of Wild-Type Signal of SCEKRYGIEFCT [phage C4 (…)] for me?
Result block: -0.2

Query block: Returns the measured % of Wild-Type Signal for the input binder. Input: WCPPKAMTQLGIKAC (Group II) [phage C14 (WCPPKAMTQLGIKAC)]
Result block: 3

Query block: Report % of Wild-Type Signal for SIGKALFILGYPDYD [phage 3.14 (SIGKALFILGYPDYD)] please.
Result block: 18.6

Query block: # lookup: % of Wild-Type Signal of SCKRTKAQILLAPCT (Group I; also called Cl) [phage C1 (SCKRTKAQILLAPCT)]
Result block: 0.1

Query block: Look up % of Wild-Type Signal: SCGHGLKVQSTIGACA (Group II) [phage 3C (SCGHGLKVQSTIGACA)]
Result block: 3.6
